- Test system: PPARg:RXRa 270nM:90nM, anti-RXR (NR concentration 270 nM, RXRa partner concentration 90 nM)
- ASSAY: PBM binding z-score (relative to random genomic background probes); higher = stronger binding; sequences stand for … in GC…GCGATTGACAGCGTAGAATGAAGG
Please note: yes applies when PBM binding z-score is 1 or greater, and no applies otherwise.

Examples with answers:
{"SEQUENCE TEXT": "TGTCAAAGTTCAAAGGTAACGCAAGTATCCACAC", "CLASS": "yes"}
{"SEQUENCE TEXT": "CCGAGTAGGTTATGGGGCATTCAGGCAACGGTGA", "CLASS": "yes"}
{"SEQUENCE TEXT": "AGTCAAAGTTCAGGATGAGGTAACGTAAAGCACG", "CLASS": "yes"}
{"SEQUENCE TEXT": "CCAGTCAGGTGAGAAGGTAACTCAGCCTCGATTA", "CLASS": "yes"}
{"SEQUENCE TEXT": "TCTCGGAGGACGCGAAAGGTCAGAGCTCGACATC", "CLASS": "yes"}
{"SEQUENCE TEXT": "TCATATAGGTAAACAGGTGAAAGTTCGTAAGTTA", "CLASS": "yes"}
{"SEQUENCE TEXT": "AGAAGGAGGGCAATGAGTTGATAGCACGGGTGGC", "CLASS": "no"}
{"SEQUENCE TEXT": "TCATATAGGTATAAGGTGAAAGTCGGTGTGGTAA", "CLASS": "yes"}

Could you tell me if the measured PBM binding z-score of TCTCGGAGGACACGAAGGTCAGAGCCTTCCAGAG reaches 1 or more?
yes

Could you tell me if the measured PBM binding z-score of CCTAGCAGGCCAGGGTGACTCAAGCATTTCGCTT reaches 1 or more?
no

Could you tell me if the measured PBM binding z-score of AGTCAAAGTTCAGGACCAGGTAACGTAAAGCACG reaches 1 or more?
yes
